tested on: Rattus norvegicus; assay: Lymphopenic activity in Wistar rat assessed as reduction in blood lymphocyte count at 10 mg/kg, po after 24 hrs; type: functional
Property measured: % change in blood lymphocyte count from predose (%)

>>> print(df.to_string())
                                   molecule  result_number
0  CCCc1ccc(-c2nc(-c3cc(C)c(OCC(O)CNC(=O)CO)c(C)c3)no2)s1 (racemic)             31
1  CCCCc1ccc(-c2nc(-c3cc(C)c(OCC(O)CNC(=O)CO)c(C)c3)no2)s1 (racemic)             18
2  CCc1ccc(-c2nc(-c3cc(C)c(OC[C@@H](O)CNC(=O)CO)c(C)c3)no2)s1             12
3  Cc1cc(-c2noc(-c3sc(C)c4c3C[C@@H]3[C@H]4C3(C)C)n2)cc(C)c1OCC(O)CNC(=O)CO (mixture of isomers)            -73
4  Cc1cc(-c2noc(-c3scc(CC(C)C)c3C)n2)cc(C)c1OCC(O)CNC(=O)CO (racemic)            -80
5  Cc1cc(-c2noc(-c3cc(CC(C)C)c(C)s3)n2)cc(C)c1OCC(O)CNC(=O)CO (racemic)            -91
6  Cc1cc(-c2noc(-c3ccc(CC(C)C)s3)n2)cc(C)c1OCC(O)CNC(=O)CO (racemic)            -66
7  Cc1cc(-c2noc(-c3sc(C)c4c3CCC(C)(C)C4)n2)cc(C)c1OCC(O)CNC(=O)CO (racemic)            -77
8  Cc1cc(-c2noc(-c3sc(C)c(CC(C)C)c3C)n2)cc(C)c1OCC(O)CNC(=O)CO (racemic)            -93
9  CCc1c(-c2nc(-c3cc(C)c(OCC(O)CNC(=O)CO)c(C)c3)no2)sc(C)c1CC(C)C (racemic)            -25

---

assay: Tmax in Wistar rat mesenteric lymph at 10 mg/kg, po; assay type: ADME, organism-based, Mesenteric lymph node; parameters: dose 10 mg/kg, route oral
Property measured: Tmax

>>> df
                                item_smiles  result
0  CCc1cc(-c2noc(-c3sc(CC)c4c3CCC(C)(C)C4)n2)cc(C)c1OC[C@@H](O)CNC(=O)CO     3 h
1  CCc1cc(-c2noc(-c3sc(CC)c4c3CCC(C)(C)C4)n2)cc(C)c1OC[C@@H](O)CO   1.4 h
2  CCc1cc(-c2noc(-c3sc(CC)c4c3CCC(C)(C)C4)n2)cc(C)c1OCCNCCC(=O)O  0.75 h

---

molecular target: Sphingosine 1-phosphate receptor 1 (Homo sapiens, UniProt P21453); assay: Agonist activity at human recombinant S1P1 receptor expressed in CHO cells assessed as membrane-bound 35S-GTPgammaS incubated 30 mins prior to substrate addition measured after 1 hr by topcount scintillation counting analysis; assay type: functional, cell-based
Sequence (P21453 whole entry): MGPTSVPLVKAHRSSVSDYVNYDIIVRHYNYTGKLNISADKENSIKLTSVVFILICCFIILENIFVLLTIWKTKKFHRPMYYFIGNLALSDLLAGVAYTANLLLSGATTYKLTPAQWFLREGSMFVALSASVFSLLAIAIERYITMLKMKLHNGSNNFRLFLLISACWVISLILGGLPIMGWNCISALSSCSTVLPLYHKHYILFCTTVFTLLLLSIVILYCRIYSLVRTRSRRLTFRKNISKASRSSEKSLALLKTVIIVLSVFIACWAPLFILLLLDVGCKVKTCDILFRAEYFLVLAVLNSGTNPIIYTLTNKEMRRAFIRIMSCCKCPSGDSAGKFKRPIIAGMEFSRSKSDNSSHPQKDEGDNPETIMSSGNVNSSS
Property measured: EC50 (nM)

>>> print(df.to_string())
                                    molecule  result_number
 0  CCc1cc(-c2noc(-c3sc(CC)c4c3CCC3(CC3)C4)n2)cc(C)c1OC[C@@H](O)CNC(=O)CO            1.1
 1  Cc1cc(CCC(=O)c2sc(C)c3c2CCC(C)(C)C3)cc(C)c1OCC(O)CNCCC(=O)O (racemic)            1.2
 2  Cc1cc(CCC(=O)c2ccc(CC(C)C)s2)cc(C)c1OCC(O)CNC(=O)CO (racemic)            7.7
 3  CCc1cc(CCC(=O)c2sc(OC)c3c2CCC(C)(C)C3)cc(C)c1OCC(O)CNC(=O)CO (racemic)            1.3
 4  CCc1sc(C(=O)CCc2cc(C)c(OCC(O)CO)c(C)c2)c2c1C[C@@H](N(C)C)CC2 (mixture of isomers)           1600
 5  CCc1sc(C(=O)CCc2cc(C)c(OC[C@@H](O)CO)c(C)c2)c2c1CC(CC)(CC)CC2            0.4
 6  CCc1c(-c2nc(-c3cc(C)c(OCC(O)CNC(=O)CO)c(C)c3)no2)sc(C)c1CC(C)C (racemic)            6.6
 7  Cc1cc(-c2noc(-c3scc(CC(C)C)c3C)n2)cc(C)c1OCC(O)CNC(=O)CO (racemic)            1.5
 8  Cc1cc(CCC(=O)c2sc(C)c3c2CCC(C)(C)C3)cc(C)c1OC[C@H](O)CO            3.4
 9  CCc1cc(CCC(=O)c2sc(C)c3c2CCC(C)(C)C3)cc(C)c1OCC(O)CNC(=O)CO (racemic)            1.2
10  Cc1cc(-c2noc(-c3sc(C)c4c3CCC(C)(C)C4)n2)cc(C)c1OCC(O)CNC(=O)CO (racemic)            1.6
11  Cc1cc(CCC(=O)c2sc(C)c3c2CCC(C)(C)C3)cc(C)c1OC[C@@H](O)CO            2.6
12  Cc1cc(CCC(=O)c2sc(C)c3c2CCC(C)(C)C3)cc(C)c1OCCO             19
13  CCCc1sc(-c2nc(-c3cc(C)c(OC[C@@H](O)CNC(=O)CO)c(CC)c3)no2)c2c1CC(C)(C)CC2             20
14  Cc1cc(-c2noc(-c3sc(C)c(CC(C)C)c3C)n2)cc(C)c1OCC(O)CNC(=O)CO (racemic)            0.5
15  CCCCc1ccc(-c2nc(-c3cc(C)c(OCC(O)CNC(=O)CO)c(C)c3)no2)s1 (racemic)            4.7
16  CCc1cc(-c2noc(-c3sc(CC)c4c3CCC(C)(C)C4)n2)cc(C)c1OCCNCCC(=O)O            1.4

The measured values listed here are drawn from ChEMBL document CHEMBL3120099.
